Tested system: SRPK2 (human)
Experiment description: KINOMEscan competition binding
Details: compound 10.0 µM

Entry smiles	Tested system	Unit	kinase still bound, per cent of control
CN(C)C/C=C/C(=O)Nc1ccc(C(=O)Nc2cccc(Nc3nccc(-c4cccnc4)n3)c2)cc1	SRPK2 (human)	%	100
NC(=O)Nc1cc(-c2cccc(F)c2)sc1C(=O)N[C@@H]1CCCNC1	SRPK2 (human)	%	4.4
O=C(Nc1cccc(Nc2ncc(Br)c(NCCc3cnc[nH]3)n2)c1)N1CCCC1	SRPK2 (human)	%	5.4
N#CCNC(=O)c1ccc(-c2ccnc(Nc3ccc(N4CCOCC4)cc3)n2)cc1	SRPK2 (human)	%	30

All values here come from the kinase profiling compilation of Christmann-Franck et al. (2016).
